target: TRIM25 CC-PRY/SPRY K602E (UniProt Q14258 189-630, K602E); test: ITC; first of two fitted sites; ITC and filter binding: 20 mM MES pH 6.5, 75 mM NaCl, 0.5 mM TCEP (ITC 20 C, filter binding on ice); NMR: 20 mM Na phosphate pH 6.5, 150 mM NaCl, 2 mM TCEP, 293 K; conditions: protein: recombinant; tags: His-Trx (removed); chain copies: 2; hairpin
Sequence (Q14258 189-630 K602E): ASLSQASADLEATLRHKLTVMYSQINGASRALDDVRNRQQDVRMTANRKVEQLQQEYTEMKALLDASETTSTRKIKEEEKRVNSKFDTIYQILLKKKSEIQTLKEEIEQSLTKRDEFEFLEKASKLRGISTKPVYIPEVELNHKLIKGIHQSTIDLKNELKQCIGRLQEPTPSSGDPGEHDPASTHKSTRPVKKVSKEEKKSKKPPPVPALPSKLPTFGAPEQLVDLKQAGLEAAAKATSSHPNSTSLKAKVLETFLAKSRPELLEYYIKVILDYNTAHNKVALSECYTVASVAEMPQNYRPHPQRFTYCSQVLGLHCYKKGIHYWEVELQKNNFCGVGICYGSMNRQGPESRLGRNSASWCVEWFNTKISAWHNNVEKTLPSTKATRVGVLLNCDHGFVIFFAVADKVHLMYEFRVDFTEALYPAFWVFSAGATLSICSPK
property: pKd
Numbers only, as −log10 of the molar value.

Which pKd is reported for this binder? GUAUAGUUUAAAAGGAGAUAACUAUAC (structured_RNA) [pre-let-7a-1@2]
6.71
